test: Pharmacokinetics and brain distribution after single oral dose, mice; type: in vivo, male CD1 mice; details: male, CD1, mouse, brain, po, 10 mg/kg, mice, single PO 10 mg/kg, 12 h; read-out: Brain:Plasma Ratio, mean (SD)
observedProperty: Kp at 12 h
// return just the number, without any unit appended

Query block: Consider the compound CC(C)N1CCOc2c(F)cc(-c3nc(Nc4ccc(C5CCN(C)CC5)cn4)ncc3F)cc21 and give its measured Kp at 12 h.
Result block: 3.3

* * *

experiment: Pharmacokinetics and brain distribution after single oral dose, rats; assay type: in vivo, male Sprague-Dawley rats; details: male, Sprague-Dawley, rat, plasma, single PO 10 mg/kg (HCl salt, as free base), 24 h
observedProperty: concentration at 24 h (ng/mL)
Output spec: scalar in ng/mL, unitless text.

Query block: Consider the molecule CC(C)N1CCOc2c(F)cc(-c3nc(Nc4ccc(C5CCN(C)CC5)cn4)ncc3F)cc21 and give its measured concentration at 24 h.
Result block: 12.9

meta.source: patent US20230000876A1
